Test system: ECHCG (Barnyardgrass)
assay-explanation: Postemergence herbicidal evaluation
Format: in vivo, Echinochloa crus-galli
condition-parameters: postemergence, rate 0.0156 kg/ha
value-kind: Herbicidal rating ECHCG
Answer field: number only, no words.

Would you please look over these solved cases?
| compound | Herbicidal rating ECHCG |
| --- | --- |
| Cn1c(C(F)(F)F)cc(=O)n(-c2cc(N=C3SCC(=O)N3C3CCCC3)c(Cl)cc2F)c1=O [Compound 166] | 0.0 |
| CCN1C(=O)CSC1=Nc1cc(-n2c(=O)cc(C(F)(F)F)n(C)c2=O)c(F)cc1Cl [Compound 159] | 2.0 |
| C=CCN1C(=O)C(CC(=O)NS(=O)(=O)CC)SC1=Nc1cc(-n2c(=O)cc(C(F)(F)F)n(C)c2=O)c(F)cc1Cl (stereo not drawn) [Compound 104] | 0.0 |
| Cc1ccccc1CN1C(=O)CSC1=Nc1cc(-n2c(=O)cc(C(F)(F)F)n(C)c2=O)c(F)cc1Cl [Compound 129] | 1.0 |
| CCOC(=O)CN1C(=O)C(CC(=O)O)SC1=Nc1cc(N2C(=O)CC(C(F)(F)F)CC2=O)c(F)cc1Cl (stereo not drawn) [Compound 170] | 1.0 |

Now look at this one.
Recorded Herbicidal rating ECHCG (compound CCOC(=O)CN1C(=O)C(C(=O)OC(C)(C)C)SC1=Nc1cc(-n2c(=O)cc(C(F)(F)F)n(C)c2=O)c(F)cc1Cl (stereo not drawn) [Compound 167] ): 3.0

====

SAGPY herbicidal effect rating: recorded values
System: SAGPY (Arrowhead (Pygmaea))
assay-explanation: Preemergence weed control under flooded paddy conditions
Assay type: in vivo, Sagittaria pygmaea
condition-parameters: 0.1250 kg/ha, rated 3-4 weeks after treatment
Give the figure by itself; no unit, no explanation.

| molecule | SAGPY herbicidal effect rating |
| --- | --- |
| CN1C(=O)C(CC(=O)O)SC1=Nc1cc(-n2c(=O)cc(C(F)(F)F)n(C)c2=O)c(F)cc1Cl (stereo not drawn) | 9.0 |
| COC(=O)C(C)OC(=O)CN1C(=O)CSC1=Nc1cc(-n2c(=O)cc(C(F)(F)F)n(C)c2=O)c(F)cc1Cl (stereo not drawn) | 5.0 |
| CCOC(=O)CN1C(=O)C(CC(=O)NOC)SC1=Nc1cc(-n2c(=O)cc(C(F)(F)F)n(C)c2=O)c(F)cc1Cl (stereo not drawn) | 7.0 |
| C=CCOC(=O)CC1SC(=Nc2cc(-n3c(=O)cc(C(F)(F)F)n(C)c3=O)c(F)cc2Cl)N(CC=C)C1=O (stereo not drawn) | 5.0 |
| CC(C)OC(=O)CN1C(=O)CSC1=Nc1cc(-n2c(=O)cc(C(F)(F)F)n(C)c2=O)c(F)cc1Cl | 7.0 |

Next up:
Noted for COC(=O)[C@@H](Cc1ccccc1)N1C(=O)CSC1=Nc1cc(-n2c(=O)cc(C(F)(F)F)n(C)c2=O)c(F)cc1Cl : its SAGPY herbicidal effect rating reads 3.0

====

A collection of compounds and their measured Herbicidal rating CYPSE
System: CYPSE (Flatsedge)
assay-explanation: Preemergence weed control under flooded paddy conditions
Assay type: in vivo, Cyperus serotinus
condition-parameters: 0.1250 kg/ha, rated 3-4 weeks after treatment
API doc: respond with a numeric literal and nothing else, no unit.

Previously resolved entries follow.
| compound | target-or-system | Herbicidal rating CYPSE |
| --- | --- | --- |
| CCOC(=O)CN1CC(=O)N(CC(=O)OCC)C1=Nc1cc(-n2c(=O)cc(C(F)(F)F)n(C)c2=O)c(F)cc1Cl [Compound 34] | CYPSE (Flatsedge) | 0.0 |
| CCOC(=O)/C=C1/S/C(=N/c2cc(-n3c(=O)cc(C(F)(F)F)n(C)c3=O)c(F)cc2Cl)N(CC(=O)OCC)C1=O [Compound 14] | CYPSE (Flatsedge) | 3.0 |

The compound identified as CCOC(=O)CN1C(=O)C(Cc2ccccc2OC)SC1=Nc1cc(-n2c(=O)cc(C(F)(F)F)n(C)c2=O)c(F)cc1Cl (stereo not drawn) [Compound 37] registered its Herbicidal rating CYPSE at 0.0

Entry CN1C(=O)CS/C1=N/c1cc(-n2c(=O)cc(C(F)(F)F)n(C)c2=O)c(F)cc1Cl [Compound 7] , Herbicidal rating CYPSE reported as 7.0

Measured Herbicidal rating CYPSE, Cn1c(C(F)(F)F)cc(=O)n(-c2cc(N=C3NC(=O)CS3)c(Cl)cc2F)c1=O [Compound 39] : 0.0

According to the records, this compound CCOC(=O)CN1C(=O)C(CC(=O)OC)S/C1=N/c1cc(-n2c(=O)cc(C(F)(F)F)n(C)c2=O)c(F)cc1Cl (stereo not drawn) [Compound 54] displays Herbicidal rating CYPSE of 0.0
